Every entry's value here was drawn from ChEMBL document CHEMBL4828773.

Molecular target: Histone deacetylase 2 (Homo sapiens)
Sequence (Q92769 whole entry): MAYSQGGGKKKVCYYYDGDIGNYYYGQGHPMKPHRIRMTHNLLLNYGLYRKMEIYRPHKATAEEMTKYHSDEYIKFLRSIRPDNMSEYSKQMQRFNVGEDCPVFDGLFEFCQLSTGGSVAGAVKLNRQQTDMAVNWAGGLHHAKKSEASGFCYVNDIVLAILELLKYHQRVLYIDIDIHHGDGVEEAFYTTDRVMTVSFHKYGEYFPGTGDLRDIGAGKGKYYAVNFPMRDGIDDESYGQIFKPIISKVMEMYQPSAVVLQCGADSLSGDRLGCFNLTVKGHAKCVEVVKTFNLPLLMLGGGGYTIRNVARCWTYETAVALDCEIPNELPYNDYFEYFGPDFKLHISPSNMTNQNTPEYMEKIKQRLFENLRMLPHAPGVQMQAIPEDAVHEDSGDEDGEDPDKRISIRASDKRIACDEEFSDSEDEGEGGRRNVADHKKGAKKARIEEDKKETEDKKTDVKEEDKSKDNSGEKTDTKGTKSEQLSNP
reported property: IC50

Inquiry: Tell me measured IC50 for Nc1ccc(-c2cccs2)cc1NC(=O)c1ccc2c(c1)CC(=O)N2CCN1CCOCC1 please.
Reply text: 5 nM
